Where do these numbers come from? They come from patent US20190367592A1.

Target Or System: T1, recombinant human Tau monomer, 2N4R isoform (amino acids 2-441) (human, UniProt P10636-8 2-441)
T1 construct: range 2-441; N-terminal His-tag removed with TEV protease; also called monomeric Tau
T1 sequence (P10636 other isoform, or with tags, fused parts or gaps limits assumed): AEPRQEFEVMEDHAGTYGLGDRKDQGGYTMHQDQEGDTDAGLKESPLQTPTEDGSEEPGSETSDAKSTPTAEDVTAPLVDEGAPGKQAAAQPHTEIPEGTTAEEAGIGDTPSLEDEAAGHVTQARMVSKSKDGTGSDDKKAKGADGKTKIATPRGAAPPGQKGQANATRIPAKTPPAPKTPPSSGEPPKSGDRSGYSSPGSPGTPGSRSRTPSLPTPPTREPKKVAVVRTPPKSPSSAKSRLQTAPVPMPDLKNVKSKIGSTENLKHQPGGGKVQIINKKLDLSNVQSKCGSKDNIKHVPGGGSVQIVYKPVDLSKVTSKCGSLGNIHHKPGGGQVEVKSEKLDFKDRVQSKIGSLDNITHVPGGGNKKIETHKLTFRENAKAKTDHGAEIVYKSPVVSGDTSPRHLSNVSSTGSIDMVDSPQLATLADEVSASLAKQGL
Protocol Notes: SPR, mIgG2a captured, Tau monomer analyte, 1:1 fit
Metric Name: kon (M⁻¹ s⁻¹)
The response must be a number in M⁻¹ s⁻¹ with no trailing unit.

Some binders with known kon results, for comparison:
>>> val("11E10-B8 (antibody, mouse IgG2a, V domains shown) VH: EVQLVESGGDLVKPGGSLKLSCAASGFTFRSYGMSWVRQTPDKRLEWVATISGGGSYTYYPDSVKGRFTISRDNAKNTLYLQMSSLKSEDTAMYYCAVSYDGAMDYWGQGTSVTVSS VL: DVLMTQTPLSLPVSLGDQASISCRSSQSIVHSNGNTYLEWYLQKPGQSPKLLIYKVSNRFSGVPDRFSGSGSGTDFTLKISRVEAEDLGLYYCFQGSHVPWTFGGGTKLEIK")
200000
>>> val("19H6-F7 (antibody, mouse IgG2a, V domains shown) VH: EVQLVESGGDLVKPGGSLKLSCAASGFTFSSYGMSWVRQTPDKRLEWVATISSGGTYTYYPDSVKGRFTISRDNAKNTLYLQMSSLKSEDTAMYYCAPSYDGAMDYWGQGTSVTVSS VL: DVLMTQTPLSLPVSLGDQASISCRSSQSIVHSNGNTYLEWYLQKPGQSPKLLIYKVSNRFSGVPDRFSGSGSGTDFTLKISRVEAEDLGVYYCFQGSLVPWTFGGGTKLEIK")
200000
>>> val("55E7-F11 (antibody, mouse IgG2a, V domains shown) VH: EVKLEESGGGLVQPGGSMKLSCVASGFTFSNYWMNWVRQSPEKGLEWVAQIRLKSDNYATHYAESVKGRFTISRDDSKSSVYLQMNNLRAEDTGIYYCAGYFYGGYFDVWGTGTTVTVSS VL: ELVLTQSPTTMAASPGKKITITCSASSSISSNYLHWYQQKPGFSPKLLIYRTSNLASGVPARFSGSGSGTSYSLTIGTMEAEDVATYYCQQGSSLPFTFGSGTKLEIK")
200000
>>> val("54C1-H11 (antibody, mouse IgG2a, V domains shown) VH: EVQLVESGGDLVKPGGSLKVSCVASGFTFRSYGMSWVRQTPDKRLDWVATISSGGNYTYYPDSVKGRFTISRDNAKNTLYLQMSSLKSEDTAMYYCASSYSGAMDYWGQGTSVTVSS VL: DTVMTQSPLSLPVSLGDQASISCRSSQSIVHSNGNTYLEWYLQKPGQSPKLLIYTVSNRFSGVPDRFSGSGSGTDFTLKISRVEAEDLGVYYCFQGSHVPWTFGGGTKLEIK")
300000

What kon value was documented for this binder, 89F4-A1 (antibody, mouse IgG2a, V domains shown) VH: EVQLVESGGGLVQPKGSLKLSCAASGFTFNTYAMNWVRQAPGKGLEWVARIRSKSNNYAAYFADSVKDRFTISRDDSQTMLYLQMNNLKSEDTAMYYCVSGGNYVPFAYWGQGTLVTVSA VL: NIMMTQSPSSLAVSAGEKVTMSCKSSQSVFYSSEQRNYLAWYQQKPGQSPKLLISWASTRESGVPDRFTGSGSGTDFTLTISSVQGEDLAVYYCHQYLSSFTFGSGTKLEIK ?
300000
